Data origin, for the record: PubChem BioAssay (NCI)

Measured TGI accompanies every entry in the list below.
System: OVCAR-3 ovarian
test-description: NCI tumour cell line growth inhibition, 48 h
Value expressed in µM; do not type the unit.

For orientation, consider the following solved cases.
molecule: COC(=O)[C@@H](C)[C@H]1CC[C@@](C)(CCC2=C(C)CC3C=C(C)CCC3C2(C)C)OO1 (stereo partly specified)
TGI, µM: 3.42

molecule: C[n+]1c2ccccc2nc2ccccc21
TGI, µM: 1.19

molecule: Cc1[nH]c2ccccc2c1/C=N/NC(=O)c1cccc(I)c1
TGI, µM: 41.2

Switching to the query record.
Item COC1=CC(=O)C=C(OC)C1=O has what recorded TGI?
32.2

----------
Tested on: HCT-15 colon
test-description: NCI tumour cell line growth inhibition, 48 h
Consider the following compounds and their measured TGI readings.

compound: CCOC(=O)C1=C(C)N(NC(N)=O)C2(N)N(NC(N)=O)C(C)=C(C(=O)OCC)C12C(=O)OCC (stereo unspecified)
experimental-target: HCT-15 colon
result: > 100 µM

compound: CCN(CC)CCn1c(=O)c2c(C)c3oc4ccccc4oc3c(C)c2c1=O
experimental-target: HCT-15 colon
result: > 100 µM

compound: O=C(CN1CCCCC1)Nc1ccc2c(c1)C1Oc3ccccc3CC1CO2 (stereo unspecified)
experimental-target: HCT-15 colon
result: 35.1 µM

compound: COc1cc(NS(C)(=O)=O)ccc1NCc1c2ccccc2nc2ccccc12
experimental-target: HCT-15 colon
result: > 100 µM

compound: Cc1ccc2c(c1)C(=O)c1c-2c(OCCCN(C)C)nc2ccccc12
experimental-target: HCT-15 colon
result: 1.94 µM

In the following, a different compound is considered.
Sample CC1=NOC(=O)/C1=C/c1ccc([N+](=O)[O-])cc1 — what was its TGI?
> 100 µM

----------
Tested on: MOLT-4 leukemia
test-description: NCI tumour cell line growth inhibition, 48 h
observation-type: TGI (µM)
Form entry: value (µM) — number only.

molecule: O=C(c1ccccc1)c1c(C(F)(F)F)n([O-])c2cc(C(F)(F)F)ccc2[n+]1=O
TGI, µM: 2.29

Sample COc1ccc(/C(C#N)=C/c2cc(OC)c(OC)c(OC)c2)cc1 — what was its TGI?
66

Give the measured TGI of COC(=O)[C@@H](C)[C@H]1CC[C@@](C)(CCC2=C(C)CC3C=C(C)CCC3C2(C)C)OO1 (stereo not given in full) .
2.75

GET /values?readout=TGI&item= O=c1oc2cc(OC/C(=N/O)c3ccc(F)cc3)ccc2c2ccccc12
42.7

I would be grateful if you could share the reported TGI for NC(N)=NC(N)=NCCCc1ccco1 .
176

----------
Measured TGI accompanies every entry in the list below.
System: OVCAR-3 ovarian
test-description: NCI tumour cell line growth inhibition, 48 h
*1 amine or outer side, *2 acyl side, *3 side chain or, on linkers, in order; H or OH if unused. Where a SMILES comes first, the peptide text is derived from it. Bridges are numbered along the chain shown (N, C = ends). Roman numbers before positions name the chains, in order. [ ]: non-standard residue; d: D form. Actinocin(9to1) = Cc1c2oc3c(C)ccc(C(=O)[*:1])c3nc-2c(C(=O)[*:2])c(N)c1=O; Hyp = O=C(O)[CH]1C[CH](O)CN1; NMeV = CN[CH](C(=O)O)C(C)C; Sar = CNCC(=O)O

Example results:
molecule: Cn1c2ccccc2c2cc(N3CCCC3)c3c(c21)C(=O)N(c1ccccc1)C3=O
result: > 100 µM
--
molecule: NC(=O)CC(N)C(=O)NC(Cc1ccccc1)C(=O)NC(Cc1ccccc1)NC(=O)C(Cc1c[nH]c2ccccc12)C(=O)O (stereo not drawn)
result: > 100 µM
--
molecule: S=c1nc(N/N=C/c2cccs2)c2cn[nH]c2[nH]1
result: 34.1 µM
--
molecule: COC(=O)C1=C(C(=O)OC)C(N(C)C)C(C(=O)OC)=C(C(=O)OC)S1
result: > 100 µM
--
molecule: Cc1c2oc3c(C)ccc(C(=O)NC4C(=O)NC(C(C)C)C(=O)N5CC(O)CC5C(=O)N(C)CC(=O)N(C)C(C(C)C)C(=O)OC4C)c3nc-2c(C(=O)NC2C(=O)NC(C(C)C)C(=O)N3CC(O)CC3C(=O)N(C)CC(=O)N(C)C(C(C)C)C(=O)OC2C)c(N)c1=O (stereo not drawn) (I: TV[Hyp][Sar][NMeV] / II: TV[Hyp][Sar][NMeV]; ester I:1-I:C, II:1-II:C; linker I:N-II:N via Actinocin(9to1); configuration not given here)
result: > 1 µM
--
molecule: C/C(CC(=O)Nc1ccccc1C)=N/NS(=O)(=O)c1ccc(C)cc1
result: > 100 µM
--
molecule: COC(=O)C1=C(O)CCCC(C2CCCCC(=O)C2C(=O)OC)=C1 (stereo not drawn)
result: > 100 µM
--
molecule: C=CC(C)C1(CCCOCc2ccccc2)C(=S)N2CCC3(CC24CCCC14)OCCO3 (stereo not drawn)
result: > 100 µM
--
molecule: C#C[C@@]1(O)CCCC2=CC3(CC[C@]21C)SCCS3
result: > 100 µM
--
molecule: CC(=O)NNc1nc(C)c(C(=O)/C=C/c2ccc(Cl)cc2)s1
result: > 100 µM

Value lookup for TGI; key = COC1=C(Cl)C(=O)c2c(O)ccc(O)c2C1=O
1.04 µM

GET /values?readout=TGI&item= O=c1[nH]nc(Nc2ccccc2)c2nnn(C3CCCCC3)c12
> 100 µM

What does the record list as TGI for COc1ccc(/C(C#N)=C/c2cc(OC)c(OC)c(OC)c2)cc1 ?
> 100 µM

// query TGI value for entry CC(C)C(=O)c1c(C(F)(F)F)n([O-])c2cc(F)c(F)cc2[n+]1=O
2.01 µM

Dear colleague, I am looking for the recorded TGI of the following molecule: CCn1c2c(c3ccccc31)[C@@H](c1ccc(Cl)cc1)CC1C(=O)N(c3ccccc3)C(=O)C21 (stereo partly drawn)
> 100 µM

Could you tell me which TGI is on file for CC(C)(C)NC(=O)/C(=C\Sc1ccccc1)c1ccccc1 ?
> 100 µM

Query (molecule): CN(O)C(=O)CCCC(=O)NCC(C)(C)CNC(=O)CCCC(=O)N(C)O ; field requested: TGI
> 100 µM

Which TGI value is on record for COC(=O)c1c2c(c(C)[n+]([O-])c1C)C(=O)C=C(NCc1cccc(Cl)c1)C2=O ?
0.665 µM

----------
System: KM12 colon
test-description: NCI tumour cell line growth inhibition, 48 h
observation-type: TGI (µM)
Provide the reading as a plain figure in µM.

Worked examples, 5 compounds total:
compound: CC(=O)/C=C/C1=C(c2csc3ccccc23)c2ccccc2CC1
experimental-target: KM12 colon
TGI, µM: 33.8

compound: Nc1nc2cc(CC[C@H]3C[C@@H](n4ccc5c(N)ncnc54)[C@H](O)[C@@H]3O)ccc2cc1Br
experimental-target: KM12 colon
TGI, µM: 25.9

compound: COC(=O)c1c2c(c(C)[n+]([O-])c1C)C(=O)C=C(NCc1cccc(Cl)c1)C2=O
experimental-target: KM12 colon
TGI, µM: 1.69

compound: CN(C)CCCC1(c2ccc(F)cc2)OCc2cc(-c3cc4ccccc4s3)ccc21 (stereo not given)
experimental-target: KM12 colon
TGI, µM: 3.45

compound: CCOC(=O)C12C(C(=O)OC)=C(C)N(NC(=O)Nc3ccccc3)C1(N)N(NC(=O)Nc1ccccc1)C(C)=C2C(=O)OC (stereo not given)
experimental-target: KM12 colon
TGI, µM: 47.8

Data request, read-out TGI, for Clc1ccc2nc(CI)c(CI)nc2c1
17.6

----------
System: ACHN renal
test-description: NCI tumour cell line growth inhibition, 48 h
Reported values of TGI for individual entries

Answered cases to consult:
compound: COc1cccc2cc(C(=O)Nc3ccccc3)c(=N)oc12
TGI: > 100 µM
--
compound: c1ccc(SC23C4C5C6C4C2C6C53)nc1 (stereo unspecified)
TGI: > 100 µM

Under ACHN renal: TGI value of O=C(/C=C1\C(=O)N(Cc2ccccc2)c2ccccc21)c1ccc(OCCN2CCCCC2)cc1 ?
2.98 µM

State its TGI on ACHN renal: Nn1c(=O)[nH]c2ncn(Cc3ccccc3)c2c1=O
> 100 µM

Form entry - test system: ACHN renal; read-out: TGI; compound: C=C1C(=O)O[C@H]2[C@H]1CC/C(Cn1cc(-c3ccc(F)cc3)nn1)=C\CC[C@@]1(C)O[C@@H]21
0.445 µM

Record lookup: for ACHN renal, what TGI belongs to Cc1cc(C)c(C(=O)O)c(SSc2cc(C)cc(C)c2C(=O)O)c1 ?
> 100 µM

Find the measured TGI: item Cc1nc(N)nc(N)c1CCCc1ccccc1 , target or system ACHN renal.
> 100 µM

----------
Items are presented alongside their recorded log10(TGI).
System: OVCAR-4 ovarian
test-description: NCI tumour cell line growth inhibition, 48 h
Answers are given as log10 of TGI in µM.

Check out these entries, answers already filled in.
compound: COc1ccc2c(c1OC)C(C(Cl)(Cl)Cl)N1CCc3cc4c(cc3C1=C2)OCO4 (stereo not given)
log10(TGI): 1.84
--
compound: Cn1nc(C(F)(F)F)c(-c2cc(C(F)(F)F)cc(C(F)(F)F)c2)c1-c1ccc(OCc2ccc(Cl)cc2)cc1O
log10(TGI): 1.12
--
compound: COC(=O)CCNc1c2ccccc2nc2cccc([N+](=O)[O-])c12
log10(TGI): -1.60
--
compound: N#Cc1cc(Sc2ccc(N)c(C#N)c2)ccc1N
log10(TGI): 1.99
--
compound: C[C@H]1CNC(=O)c2cnn3ccc(nc23)N[C@H](C)c2cc(F)ccc2O1
log10(TGI): 1.42

Name the reported log10(TGI) value associated with the compound Cc1c(C)c(C)c(-n2c(=O)n(C)c(=O)n2-c2cc(C(C)(C)C)cc(C(C)(C)C)c2O)c(C)c1C
1.33

Query: log10(TGI); subject: COC(=O)c1c2c(c(C)[n+]([O-])c1C)C(=O)C=C(NCc1cccc(Cl)c1)C2=O
-0.03
